# System name: mitochondrial uncoupling protein 1 (UCP1) (Mus musculus)
# Construct: recombinant mouse UCP1 from E. coli inclusion bodies, reconstituted in lipid bilayers
# Sequence (P12242 whole entry): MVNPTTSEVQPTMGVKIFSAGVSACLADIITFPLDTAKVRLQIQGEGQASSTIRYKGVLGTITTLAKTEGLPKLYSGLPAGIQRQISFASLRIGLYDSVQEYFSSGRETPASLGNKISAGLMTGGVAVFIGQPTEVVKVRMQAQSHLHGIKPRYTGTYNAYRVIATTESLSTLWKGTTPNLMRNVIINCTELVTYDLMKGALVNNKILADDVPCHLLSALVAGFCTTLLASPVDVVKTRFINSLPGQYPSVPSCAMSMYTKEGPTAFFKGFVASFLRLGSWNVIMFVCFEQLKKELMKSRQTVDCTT
# Procedure summary: planar lipid bilayer conductance with reconstituted UCP1
Measure name: EC50 (µM)

> print(dat)
                                   molecule  measure.name  value
1  COC(=O)C1=CO[C@@H](O[C@@H]2O[C@H](CO)[C@@H](O)[C@H](O)[C@H]2O)[C@@H]2C(CO)=CC[C@H]12 [geniposide]          EC50    693

* * *

# System name: mitochondrial uncoupling protein 1 (UCP1) (Mus musculus)
# Construct: recombinant mouse UCP1 from E. coli inclusion bodies, reconstituted in lipid bilayers
# Procedure summary: planar lipid bilayer conductance with reconstituted UCP1; LC-MS/MS of covalent adducts; arginine mutants; competition with ATP
# Type: biochemical
pIC50: −log10 of the molar value.
Measure name: pIC50

> print(dat)
                                     smiles  measure.name  value
1  COC(=O)C1=CO[C@@H](O)[C@@H]2C(CO)=CC[C@H]12         pIC50   3.88
